Source listed as paper PMC4926125.

assay: Toxicokinetics of cereulide in rabbits after a single intravenous injection (plasma, UPLC-MS/MS); format: in vivo, New Zealand White rabbits; conditions: both sexes, New Zealand White, iv, 5 ug, single i.v. 5 μg cereulide/rabbit, plasma, UPLC-MS/MS, non-compartmental, n = 8, mean ± SD, read-out: AUC∞, area under the curve until infinity

{"columns": ["compound", "AUC(0-inf), µg·h/mL"],
 "data": [
  ["CC(C)C[C@H]1OC(=O)[C@H](C(C)C)NC(=O)[C@H](C(C)C)OC(=O)[C@@H](C)NC(=O)[C@@H](CC(C)C)OC(=O)[C@H](C(C)C)NC(=O)[C@H](C(C)C)OC(=O)[C@@H](C)NC(=O)[C@@H](CC(C)C)OC(=O)[C@H](C(C)C)NC(=O)[C@H](C(C)C)OC(=O)[C@@H](C)NC1=O [cereulide]", 0.39]
]}
